Data provenance is PubChem BioAssay (EPA / NIEHS).

read-out: Lipase C (LIPC), LIPC (gene 3990); test: LTEA_HepaRG_LIPC: Life Technologies and Expression Analysis (LTEA) Assay for Lipase C (LIPC) using HepaRG (AID 2283514); conditions: mRNA level, 48 h; actives raise or lower the signal
Calls of active or inactive are those of the source. Rule for the calls: active = hit-call score of the fitted dose curve at least 0.9, where 1 is the maximum; inactive = score below 0.9.
Attribute measured: outcome

Compound	Result
CNCc1ccc(NC(=O)c2c[nH]c3c2C(=O)CCC3)cc1	inactive
COC(=O)CC(=O)OC	inactive
CCOC(=O)c1ccc(C2CCC(NC[C@H](O)COc3ccc(O)c(NS(C)(=O)=O)c3)CC2)cc1 (stereo partly drawn)	inactive

---

read-out: Macrophage colony-stimulating factor (MCSF), CSF1 (gene 1435); experiment: BSK_hDFCGF_MCSF: BioMAP Diversity Plus: hDFCGF Assay for Macrophage colony-stimulating factor (MCSF) Biomarker Activity (AID 2283060); settings: primary human foreskin fibroblasts; actives raise or lower the signal
Calls of active or inactive are those of the source. Rule for the calls: active = hit-call score of the fitted dose curve at least 0.9, where 1 is the maximum; inactive = score below 0.9.
// one of 1 (active), -1 (inactive), no free text

Just curious, what result did O=C1OC(=O)C2C3C=CC(C3)C12 (configuration not stated) get here? -1

Which result was noted for this compound in the test: O=C1CCC(N2C(=O)c3ccccc3C2=O)C(=O)N1 (configuration not stated) -1

What is the recorded call for this compound in the test? CCCCCCc1ccc(O)cc1O 1

Any idea what this test logged for CCOc1cccc(-n2cc(C(=O)N3CCN(c4cc(C(=O)O)c5ccccc5c4)CC3)nc2-c2ccc(C)cc2)c1 ? 1

Could you check what this test reported for Cc1ccc(N)cc1O ? -1

For this compound, state the assay outcome: Fc1ccccc1[C@@H](F)COC1CCC(Nc2ncnc3[nH]ncc23)CC1 (some centres not stated) -1

Query: recorded result category for CCC(C)(C)C(=O)O[C@H]1C[C@@H](C)C=C2C=C[C@H](C)[C@H](CC[C@@H]3C[C@@H](O)CC(=O)O3)[C@H]21 in this test 1

// return assay outcome for CN(C)c1ccc(N=NS(=O)(=O)O)cc1 1

For COC(=O)CC(=O)OC , which call appears in the assay record? -1

Hi team, can someone confirm the assay call for CC[C@H](C)C(=O)O[C@H]1C[C@@H](C)C=C2C=C[C@H](C)[C@H](CC[C@@H]3C[C@@H](O)CC(=O)O3)[C@H]21 ? 1

Could you check what this test reported for O=C(CCCCCCCCc1cccnc1)N1CCC(C=C(c2ccccc2)c2ccccc2)CC1 ? 1

Hi, do you know how CC(C)CC(C)(O)C#CC(C)(O)CC(C)C (configuration not stated) came out in this test? -1

Can you look up the reported call for COc1cccc(-c2ccc(/C=C\CN3CCCCCC3)cc2Cl)c1 for me? 1

In this assay, the call recorded for C=CC(=C)CCC=C(C)C was what? -1

Can you look up the reported call for NC(=O)NO for me? -1

So what was the verdict on CCCN(C1CCN(C(=O)C2CCNCC2)CC1)[C@@H]1CCc2ccc(OC)cc2C1 in this test? -1

For C=CCCCCCCCCC(=O)O , which call appears in the assay record? -1
